Tested on: luciferase-expressing P. berghei liver stage parasites in HepG2 cells
Assay: Inhibition of liver-stage development assay (ILSDA), Method 2 (WRAIR, 96-well)
Assay type: cell-based, Plasmodium berghei
Details: Plasmodium berghei, HepG2, Method 2; log10 of molar AC50 from Hill fit; read-out: Log AC50 (converted)
Each entry below carries its reported AC50.
Include the unit after the number when you answer.

compound=CC1=C[C@@H](CNCc2cccnc2)[C@H](C(C)C)C[C@H]1Cc1nnc(-c2ccc([N+](=O)[O-])cc2)o1 reported_metric=AC50 result="562 nM"

Problem: Would you mind telling me what AC50 value was observed for `Cc1ccc(CSCc2ccc(C(=O)NC3CC3)o2)cc1` ?
Result: 224 nM

Problem: I'd like to know its AC50. The compound in question is `CCN(CC)CCCN(c1ccccc1)C1Cc2ccccc2C1.Cl`
Result: 7940 nM

Problem: Give the measured AC50 of `CCC(CC)c1cc([C@H]2CN3CC[C@H]2C[C@@H]3CN[S+](=O)([O-])c2cccs2)nc(-c2ccncc2)n1` .
Result: 631 nM

Problem: // AC50 lookup, key: `CCn1cc(C(=O)O)c(=O)c2cnc(N3CCN(/C(S)=N/c4ccccc4)CC3)nc21`
Result: 2000 nM

Problem: Value lookup for AC50; key = `COc1ccc(-n2nc(C)c([C@@H]3C=C[C@@H](NCc4ccc(N(C)C)cc4)C3)c2C)cc1`
Result: 2820 nM
